- Tested On: recombinant human ALK5 (TGF-βR1) protein (Homo sapiens)
- Construct: purchased Life Technologies PR9075A
- Sequence (P36897 34-503): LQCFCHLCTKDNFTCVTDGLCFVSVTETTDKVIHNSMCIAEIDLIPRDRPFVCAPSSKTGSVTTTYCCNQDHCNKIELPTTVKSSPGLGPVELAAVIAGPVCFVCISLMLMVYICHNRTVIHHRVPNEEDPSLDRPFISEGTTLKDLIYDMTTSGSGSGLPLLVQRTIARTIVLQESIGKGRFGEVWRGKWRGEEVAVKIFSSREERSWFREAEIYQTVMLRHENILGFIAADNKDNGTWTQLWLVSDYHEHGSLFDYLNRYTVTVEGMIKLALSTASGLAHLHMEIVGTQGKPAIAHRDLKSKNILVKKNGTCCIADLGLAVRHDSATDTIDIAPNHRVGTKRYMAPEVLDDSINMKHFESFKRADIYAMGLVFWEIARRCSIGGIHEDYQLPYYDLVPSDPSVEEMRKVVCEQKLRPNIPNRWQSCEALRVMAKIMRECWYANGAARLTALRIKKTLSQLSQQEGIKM
- Experimental Protocol: Biochemical ALK5 (TGF-βR1) assay to measure pKi (LANCE Ultra ULight kinase assay)
- Test Settings: apparent pKi from pIC50 by Cheng-Prusoff, read-out: ALK5 pKi (converted)
Quantity Name: Ki

{"columns": ["Mol Smiles", "Value Measured"],
 "data": [
  ["Cc1cccc(-c2n[nH]cc2-c2ccc3ncc(-c4nc(C(=O)O)co4)cc3n2)n1", "0.398 to 3.16 nM"],
  ["Cc1cccc(-c2[nH]cnc2-c2ccc3ncc(-c4nccc(C(=O)OC5CCNCC5)n4)cc3c2)n1", "0.0398 to 0.316 nM"]
]}

Kindly note the recorded Ki for Cc1cccc(-c2n[nH]cc2-c2ccc3ncc(N4CCC(N(C)CC(C)C)CC4)cc3n2)n1 , which is 0.0398 to 0.316 nM
